meta.source: patent US11965039B2

# target of assay: Human C3 (Complement tech cat #A113c) (human, UniProt P01024 23-1663)
# Sequence (P01024 23-1663 limits assumed): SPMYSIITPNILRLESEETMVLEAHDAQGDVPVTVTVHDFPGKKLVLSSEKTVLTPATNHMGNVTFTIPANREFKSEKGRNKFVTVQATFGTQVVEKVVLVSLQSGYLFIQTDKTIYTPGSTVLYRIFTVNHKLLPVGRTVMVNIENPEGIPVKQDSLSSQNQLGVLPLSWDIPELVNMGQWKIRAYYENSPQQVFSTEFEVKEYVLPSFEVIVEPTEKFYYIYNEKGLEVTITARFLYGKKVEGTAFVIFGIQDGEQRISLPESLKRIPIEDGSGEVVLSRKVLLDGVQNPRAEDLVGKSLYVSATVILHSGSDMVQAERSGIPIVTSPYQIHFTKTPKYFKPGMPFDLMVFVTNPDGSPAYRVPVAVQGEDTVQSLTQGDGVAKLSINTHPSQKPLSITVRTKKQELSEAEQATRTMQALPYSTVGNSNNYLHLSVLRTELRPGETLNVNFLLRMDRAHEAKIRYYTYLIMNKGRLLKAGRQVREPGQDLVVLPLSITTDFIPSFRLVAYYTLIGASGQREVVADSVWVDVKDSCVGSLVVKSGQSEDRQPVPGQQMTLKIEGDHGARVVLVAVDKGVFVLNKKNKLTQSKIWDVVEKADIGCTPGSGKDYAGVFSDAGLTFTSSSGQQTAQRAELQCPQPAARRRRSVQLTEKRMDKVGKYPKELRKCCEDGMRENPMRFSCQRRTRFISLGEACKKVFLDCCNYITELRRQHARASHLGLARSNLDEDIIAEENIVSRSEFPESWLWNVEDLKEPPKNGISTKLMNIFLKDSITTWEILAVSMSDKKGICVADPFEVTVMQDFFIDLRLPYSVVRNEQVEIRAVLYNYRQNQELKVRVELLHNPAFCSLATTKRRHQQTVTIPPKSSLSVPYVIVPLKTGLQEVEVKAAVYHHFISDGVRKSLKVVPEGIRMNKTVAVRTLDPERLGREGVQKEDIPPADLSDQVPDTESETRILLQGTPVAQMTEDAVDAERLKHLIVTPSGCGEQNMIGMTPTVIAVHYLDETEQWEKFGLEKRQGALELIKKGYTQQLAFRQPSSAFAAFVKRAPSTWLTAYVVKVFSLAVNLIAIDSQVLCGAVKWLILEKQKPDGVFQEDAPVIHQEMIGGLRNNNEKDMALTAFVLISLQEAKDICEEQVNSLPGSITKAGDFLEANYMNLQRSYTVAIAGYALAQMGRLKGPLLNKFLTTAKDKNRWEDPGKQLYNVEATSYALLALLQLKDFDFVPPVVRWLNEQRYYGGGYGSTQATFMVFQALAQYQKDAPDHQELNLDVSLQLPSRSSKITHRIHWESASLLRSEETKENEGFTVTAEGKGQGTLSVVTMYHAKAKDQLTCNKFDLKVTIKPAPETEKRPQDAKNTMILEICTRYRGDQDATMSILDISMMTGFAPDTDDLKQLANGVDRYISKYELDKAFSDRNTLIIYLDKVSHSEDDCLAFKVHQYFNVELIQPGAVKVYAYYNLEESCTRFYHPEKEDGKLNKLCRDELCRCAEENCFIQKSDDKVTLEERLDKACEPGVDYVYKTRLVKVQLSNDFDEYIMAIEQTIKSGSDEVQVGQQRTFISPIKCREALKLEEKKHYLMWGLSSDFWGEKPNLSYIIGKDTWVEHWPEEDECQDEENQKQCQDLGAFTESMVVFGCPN
# method: cell-based or functional assay
Positions of bridges follow the written chain, without caps; N, C: chain ends.
measurement kind: inhibition of hemolysis IC50

Query: inhibition of hemolysis IC50; subject: Ac-YCIWQDWGEHRCTGAES-NH2 (disulfide 2-12; SMILES CC[C@H](C)[C@@H]1NC(=O)[C@@H](NC(=O)[C@H](Cc2ccc(O)cc2)NC(C)=O)CSSC[C@@H](C(=O)N[C@H](C(=O)NCC(=O)N[C@@H](C)C(=O)N[C@@H](CCC(=O)O)C(=O)N[C@@H](CO)C(N)=O)[C@@H](C)O)NC(=O)[C@H](CCCNC(=N)N)NC(=O)[C@H](Cc2c[nH]cn2)NC(=O)[C@H](CCC(=O)O)NC(=O)CNC(=O)[C@H](Cc2c[nH]c3ccccc23)NC(=O)[C@H](CC(=O)O)NC(=O)[C@H](CCC(N)=O)NC(=O)[C@H](Cc2c[nH]c3ccccc23)NC1=O) [Compound 66]
< 100 nM
